The measured values listed here are drawn from patent US20230192860A1.

Listed here are binders together with their documented koff.
target: T1, monovalent hVISTA-ECD with polyhistidine tail (SEQ ID NO: 325) (human, UniProt Q9H7M9 33-193); test: SPR, mAb captured on Protein A chip, hVISTA injected, PBST pH 6.0, 37 C
T1 construct: also called hVISTA-ECD 6-His tag; human VISTA
T1 sequence (Q9H7M9 other isoform, or with tags, fused parts or gaps limits assumed): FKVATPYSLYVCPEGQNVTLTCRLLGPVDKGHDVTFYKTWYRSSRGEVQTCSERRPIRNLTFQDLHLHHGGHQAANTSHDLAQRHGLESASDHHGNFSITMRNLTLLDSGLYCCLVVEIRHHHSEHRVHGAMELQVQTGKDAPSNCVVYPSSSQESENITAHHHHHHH
Respond numerically; units are s⁻¹ and should not be typed.

// known answers, use as guide
{"columns": ["binder", "display_unit", "koff"],
 "data": [
  ["P1-077867 (P1-068748 H32Y) (antibody, V domains shown, Reversion mutant of P1-068748 (Kabat names); captured on a Protein A chip) VH: QVQLVESGGGVVQPGRSLRLSCAASGFTFSHYAMHWVRQAPGKGLEWVAIIWYDGSNDDYADSVKGRFTISRDNSKNTLYLQMNSLRAEDTAVYYCARDSGFYDSYYFDYWGQGTLVTVSS VL: EIVLTQSPATLSLSPGERATLSCRASQSVSSSYLAWYQQKPGQAPRLLIYDASNRATGIPARFSGSGSGTDFTLTISSLEPEDFATYYCQQYNSYPYTFGQGTKLEIK", "s⁻¹", 0.0029],
  ["P1-077873 (P1-068748 D100S) (antibody, V domains shown, Reversion mutant of P1-068748 (Kabat names); captured on a Protein A chip) VH: QVQLVESGGGVVQPGRSLRLSCAASGFTFSHHAMHWVRQAPGKGLEWVAIIWYDGSNDDYADSVKGRFTISRDNSKNTLYLQMNSLRAEDTAVYYCARDSGFYSSYYFDYWGQGTLVTVSS VL: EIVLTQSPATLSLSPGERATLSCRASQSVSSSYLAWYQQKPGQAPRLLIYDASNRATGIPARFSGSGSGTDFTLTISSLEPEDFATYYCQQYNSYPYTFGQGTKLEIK", "s⁻¹", 0.0012],
  ["P1-077865 (P1-068748 H31S) (antibody, V domains shown, Reversion mutant of P1-068748 (Kabat names); captured on a Protein A chip) VH: QVQLVESGGGVVQPGRSLRLSCAASGFTFSSHAMHWVRQAPGKGLEWVAIIWYDGSNDDYADSVKGRFTISRDNSKNTLYLQMNSLRAEDTAVYYCARDSGFYDSYYFDYWGQGTLVTVSS VL: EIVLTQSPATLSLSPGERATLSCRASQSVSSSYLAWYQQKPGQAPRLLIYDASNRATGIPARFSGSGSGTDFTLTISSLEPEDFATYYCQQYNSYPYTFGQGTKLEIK", "s⁻¹", 0.0028],
  ["P1-077893 (P1-068748 D57K D100S) (antibody, V domains shown, Reversion mutant of P1-068748 (Kabat names); the antibody was captured on a Protein A chip, so an Fc was present) VH: QVQLVESGGGVVQPGRSLRLSCAASGFTFSHHAMHWVRQAPGKGLEWVAIIWYDGSNKDYADSVKGRFTISRDNSKNTLYLQMNSLRAEDTAVYYCARDSGFYSSYYFDYWGQGTLVTVSS VL: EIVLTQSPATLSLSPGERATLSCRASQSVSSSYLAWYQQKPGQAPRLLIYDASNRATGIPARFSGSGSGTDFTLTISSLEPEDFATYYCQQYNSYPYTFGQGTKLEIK", "s⁻¹", 0.00058]
]}

Shift focus to the following entry.
What value of measured koff is listed for P1-077887 (P1-068748 H31S D100S) (antibody, V domains shown, Reversion mutant of P1-068748 (Kabat names); captured on a Protein A chip) VH: QVQLVESGGGVVQPGRSLRLSCAASGFTFSSHAMHWVRQAPGKGLEWVAIIWYDGSNDDYADSVKGRFTISRDNSKNTLYLQMNSLRAEDTAVYYCARDSGFYSSYYFDYWGQGTLVTVSS VL: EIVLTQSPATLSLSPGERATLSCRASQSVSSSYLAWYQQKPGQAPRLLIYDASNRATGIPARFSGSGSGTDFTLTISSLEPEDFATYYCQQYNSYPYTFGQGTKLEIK ?
0.0011
